- Target entity: UniProt:P62937
- Protocol: Inhibitor binding to cyclophilin proteins by SPR, CypA
- Parameters: unit not given here
- Condition label: 1:1 binding model
Starred links: 1 amine or outer side, 2 acyl side, 3 side chain; linkers in the order of their positions; H or OH if unused. Non-standard residues stand in square brackets, D forms with d. Residues, ends and D or L forms follow the SMILES beside them. X63 = C[C@H](CN1CCN(C2COC2)CC1)[C@@H](C(=O)[*:2])N(C)[*:1]; X8 = COCCN1CCN(C[C@@H](C)[C@@H](C(=O)[*:2])N(C)[*:1])CC1; MeBmt = C/C=C/C[C@@H](C)[C@@H](O)[C@H](NC)C(=O)O; NMeL = CN[C@@H](CC(C)C)C(=O)O; NMeV = CN[C@H](C(=O)O)C(C)C; dNMeA = CN[C@H](C)C(=O)O; Abu = CC[C@H](N)C(=O)O
Readout label: CypA Kd
I'd appreciate a reply containing only the number, no unit.

Inquiry: Please report the measured CypA Kd for C/C=C/C[C@@H](C)[C@@H](O)[C@H]1C(=O)N[C@@H](CC)C(=O)N(C)[C@H](C)C(=O)N(C)[C@@H]([C@H](C)CN2CCN(CCOC)CC2)C(=O)N[C@@H](C(C)C)C(=O)N(C)[C@@H](CC(C)C)C(=O)N[C@@H](C)C(=O)N[C@H](C)C(=O)N(C)[C@@H](CC(C)C)C(=O)N(C)[C@@H](CC(C)C)C(=O)N(C)[C@@H](C(C)C)C(=O)N1C [Compound 2.5.10] (cyclo([MeBmt][Abu][dNMeA][X8]V[NMeL]A[dA][NMeL][NMeL][NMeV]))
Reply text: 1.2

Inquiry: Please report the measured CypA Kd for C/C=C/C[C@@H](C)[C@@H](O)[C@H]1C(=O)N[C@@H](CC)C(=O)N(C)[C@H](C)C(=O)N(C)[C@@H]([C@H](C)CN2CCN(C3COC3)CC2)C(=O)N[C@@H](C(C)C)C(=O)N(C)[C@@H](CC(C)C)C(=O)N[C@@H](C)C(=O)N[C@H](C)C(=O)N(C)[C@@H](CC(C)C)C(=O)N(C)[C@@H](CC(C)C)C(=O)N(C)[C@@H](C(C)C)C(=O)N1C [Compound 2.5.11] (cyclo(A[dA][NMeL][NMeL][NMeV][MeBmt][Abu][dNMeA][X63]V[NMeL]))
Reply text: 1.6

Inquiry: Please report the measured CypA Kd for C/C=C/C[C@@H](C)[C@@H](O)[C@H]1C(=O)N[C@@H](CC)C(=O)N(C)[C@H](CCCN2CCOCC2)C(=O)N(C)[C@@H]([C@H](C)CS(C)(=O)=O)C(=O)N[C@@H](C(C)C)C(=O)N(C)[C@@H](CC(C)C)C(=O)N[C@@H](C)C(=O)N[C@H](C)C(=O)N(C)[C@@H](CC(C)C)C(=O)N(C)[C@@H](CC(C)C)C(=O)N(C)[C@@H](C(C)C)C(=O)N1C (stereo in doubt)
Reply text: 8.7

====

- Target entity: organic anion transporting polypeptide 1B1 (OATP1B1) (Homo sapiens (Human), UniProt Q9Y6L6)
- Sequence (Q9Y6L6 whole entry): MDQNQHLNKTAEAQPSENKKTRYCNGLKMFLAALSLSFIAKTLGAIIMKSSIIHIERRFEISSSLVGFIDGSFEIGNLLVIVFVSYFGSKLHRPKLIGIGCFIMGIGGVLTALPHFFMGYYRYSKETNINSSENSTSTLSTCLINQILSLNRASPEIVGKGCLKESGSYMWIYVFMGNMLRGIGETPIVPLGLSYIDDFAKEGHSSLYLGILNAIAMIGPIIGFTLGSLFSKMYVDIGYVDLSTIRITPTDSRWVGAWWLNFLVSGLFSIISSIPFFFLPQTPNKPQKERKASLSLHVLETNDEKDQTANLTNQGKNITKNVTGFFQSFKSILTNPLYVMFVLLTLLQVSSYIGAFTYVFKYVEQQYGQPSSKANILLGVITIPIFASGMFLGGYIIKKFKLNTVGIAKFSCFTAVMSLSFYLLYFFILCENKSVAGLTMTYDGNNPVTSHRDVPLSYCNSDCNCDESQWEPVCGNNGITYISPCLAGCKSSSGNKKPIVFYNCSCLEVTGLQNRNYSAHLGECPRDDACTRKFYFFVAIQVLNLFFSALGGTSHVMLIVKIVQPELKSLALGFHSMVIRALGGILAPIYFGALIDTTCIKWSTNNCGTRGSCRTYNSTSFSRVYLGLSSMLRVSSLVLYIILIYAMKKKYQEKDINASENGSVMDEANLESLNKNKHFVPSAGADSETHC
- Protocol: OATP assay in CHO-OATP1B1 cells;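 further: inhibition of probe substrate uptake into the cells, ten minutes exposure, accumulated substrate read by fluorescence once cells were lysed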
Starred links: 1 amine or outer side, 2 acyl side, 3 side chain; linkers in the order of their positions; H or OH if unused. Non-standard residues stand in square brackets, D forms with d. Residues, ends and D or L forms follow the SMILES beside them. X67 = C[C@H](CCN1CCOC[C@@H]1C)[C@@H](C(=O)[*:2])N(C)[*:1]; X30 = C[C@H](CN1CCCOCC1)[C@@H](C(=O)[*:2])N(C)[*:1]; MeBmt = C/C=C/C[C@@H](C)[C@@H](O)[C@H](NC)C(=O)O; NMeL = CN[C@@H](CC(C)C)C(=O)O; NMeV = CN[C@H](C(=O)O)C(C)C; dNMeA = CN[C@H](C)C(=O)O; Abu = CC[C@H](N)C(=O)O
Exercise: for every item that follows, state its recorded pIC50.
Hey, just a heads up that pIC50 is the negative log base 10 of the concentration in molar.

Inquiry: Please report the measured pIC50 for C/C=C/C[C@@H](C)[C@@H](O)[C@H]1C(=O)N[C@@H](CC)C(=O)N(C)[C@H](C)C(=O)N(C)[C@@H]([C@H](C)CCN2CCOC[C@@H]2C)C(=O)N[C@@H](C(C)C)C(=O)N(C)[C@@H](CC(C)C)C(=O)N[C@@H](C)C(=O)N[C@H](C)C(=O)N(C)[C@@H](CC(C)C)C(=O)N(C)[C@@H](CC(C)C)C(=O)N(C)[C@@H](C(C)C)C(=O)N1C [Compound 2.18.4] (cyclo(A[dA][NMeL][NMeL][NMeV][MeBmt][Abu][dNMeA][X67]V[NMeL]))
Reply text: 5.77

Inquiry: Please report the measured pIC50 for C/C=C/C[C@@H](C)[C@@H](O)[C@H]1C(=O)N[C@@H](CC)C(=O)N(C)[C@H](C)C(=O)N(C)[C@@H]([C@H](C)CN2CCCOCC2)C(=O)N[C@@H](C(C)C)C(=O)N(C)[C@@H](CC(C)C)C(=O)N[C@@H](C)C(=O)N[C@H](C)C(=O)N(C)[C@@H](CC(C)C)C(=O)N(C)[C@@H](CC(C)C)C(=O)N(C)[C@@H](C(C)C)C(=O)N1C [Compound 2.5.21] (cyclo(A[dA][NMeL][NMeL][NMeV][MeBmt][Abu][dNMeA][X30]V[NMeL]))
Reply text: 5.77

====

- Target entity: cyclophilin A (CypA) (Homo sapiens (Human))
- Sequence (P62937 whole entry): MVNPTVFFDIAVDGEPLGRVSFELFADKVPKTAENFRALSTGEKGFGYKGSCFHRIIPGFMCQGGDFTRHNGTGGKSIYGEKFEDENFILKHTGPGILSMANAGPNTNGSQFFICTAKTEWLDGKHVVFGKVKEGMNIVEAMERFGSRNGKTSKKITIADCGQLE
- Protocol: Inhibitor binding to cyclophilin proteins by SPR, CypA;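 further: Single-cycle kinetics on a Biacore T200, compound injected at several concentrations for 1 min each at 50 µL/min, then 10 min dissociation, in HEPES pH 7.4 buffer with 3% DMSO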
- Design: unit not given here
- Condition label: 1:1 binding model
Starred links: 1 amine or outer side, 2 acyl side, 3 side chain; linkers in the order of their positions; H or OH if unused. Non-standard residues stand in square brackets, D forms with d. Residues, ends and D or L forms follow the SMILES beside them. X42 = C[C@H](CCCOC(=O)N(C)C1CCN(C)CC1)[C@@H](C(=O)[*:2])N(C)[*:1]; X64 = COC[C@@H]1CN(C[C@@H](C)[C@@H](C(=O)[*:2])N(C)[*:1])CCO1; X82 = C[C@H](COCCN1CCOC[C@@H]1C)[C@@H](C(=O)[*:2])N(C)[*:1]; X19 = COCCN1CCN(C[C@H](C)[C@@H](C(=O)[*:2])N(C)[*:1])CC1; NMe(dihydroBmt) = CCCC[C@@H](C)[C@@H](O)[C@H](NC)C(=O)O; MeBmt = C/C=C/C[C@@H](C)[C@@H](O)[C@H](NC)C(=O)O; NMeL = CN[C@@H](CC(C)C)C(=O)O; NMeV = CN[C@H](C(=O)O)C(C)C; dNMeA = CN[C@H](C)C(=O)O; Abu = CC[C@H](N)C(=O)O
Readout label: CypA Kd

Inquiry: Please report the measured CypA Kd for C/C=C/C[C@@H](C)[C@@H](O)[C@H]1C(=O)N[C@@H](CC)C(=O)N(C)[C@H](C)C(=O)N(C)[C@@H]([C@H](C)CN2CCO[C@H](COC)C2)C(=O)N[C@@H](C(C)C)C(=O)N(C)[C@@H](CC(C)C)C(=O)N[C@@H](C)C(=O)N[C@H](C)C(=O)N(C)[C@@H](CC(C)C)C(=O)N(C)[C@@H](CC(C)C)C(=O)N(C)[C@@H](C(C)C)C(=O)N1C [Compound 2.5.34] (cyclo(A[dA][NMeL][NMeL][NMeV][MeBmt][Abu][dNMeA][X64]V[NMeL]))
Reply text: 1.3

Inquiry: Please report the measured CypA Kd for C/C=C/C[C@@H](C)[C@@H](O)[C@H]1C(=O)N[C@@H](CC)C(=O)N(C)[C@H](CC)C(=O)N(C)[C@@H]([C@H](C)COC)C(=O)N[C@@H](C(C)C)C(=O)N(C)[C@@H](CC(C)C)C(=O)N[C@@H](C)C(=O)N[C@H](C)C(=O)N(C)[C@@H](CC(C)C)C(=O)N(C)[C@@H](CC(C)C)C(=O)N(C)[C@@H](C(C)C)C(=O)N1C [Compound 3.1]
Reply text: 3.4

Inquiry: Please report the measured CypA Kd for C/C=C/C[C@@H](C)[C@@H](O)[C@H]1C(=O)N[C@@H](CC)C(=O)N(C)[C@H](C)C(=O)N(C)[C@@H]([C@H](C)CCCOC(=O)N(C)C2CCN(C)CC2)C(=O)N[C@@H](C(C)C)C(=O)N(C)[C@@H](CC(C)C)C(=O)N[C@@H](C)C(=O)N[C@H](C)C(=O)N(C)[C@@H](CC(C)C)C(=O)N(C)[C@@H](CC(C)C)C(=O)N(C)[C@@H](C(C)C)C(=O)N1C [Compound 2.19.9] (cyclo(A[dA][NMeL][NMeL][NMeV][MeBmt][Abu][dNMeA][X42]V[NMeL]))
Reply text: 0.8

Inquiry: Please report the measured CypA Kd for C/C=C/C[C@@H](C)[C@@H](O)[C@H]1C(=O)N[C@@H](CC)C(=O)N(C)[C@H](C)C(=O)N(C)[C@@H]([C@H](C)COCCN2CCOC[C@@H]2C)C(=O)N[C@@H](C(C)C)C(=O)N(C)[C@@H](CC(C)C)C(=O)N[C@@H](C)C(=O)N[C@H](C)C(=O)N(C)[C@@H](CC(C)C)C(=O)N(C)[C@@H](CC(C)C)C(=O)N(C)[C@@H](C(C)C)C(=O)N1C [Compound 2.8.6] (cyclo(A[dA][NMeL][NMeL][NMeV][MeBmt][Abu][dNMeA][X82]V[NMeL]))
Reply text: 1.3

Inquiry: Please report the measured CypA Kd for CCCC[C@@H](C)[C@@H](O)[C@H]1C(=O)N[C@@H](CC)C(=O)N(C)[C@H](C)C(=O)N(C)[C@@H]([C@@H](C)CN2CCN(CCOC)CC2)C(=O)N[C@@H](C(C)C)C(=O)N(C)[C@@H](CC(C)C)C(=O)N[C@@H](C)C(=O)N[C@H](C)C(=O)N(C)[C@@H](CC(C)C)C(=O)N(C)[C@@H](CC(C)C)C(=O)N(C)[C@@H](C(C)C)C(=O)N1C [Compound 2.17.6] (cyclo(A[dA][NMeL][NMeL][NMeV][NMe(dihydroBmt)][Abu][dNMeA][X19]V[NMeL]))
Reply text: 0.9

Source: patent US9566312B2
